Tested on: phospho-ERK in melanoma derived WM-266-4 cells
Assay: Mechanistic cellular assay for Raf kinase activity (phospho-ERK, Bio-Plex)
Format: cell-based
Settings: Homo sapiens, treated 1-2 hr at 37° C., serum free medium, read-out: pERK EC50
pEC50: −log10 of the molar value.
Form field: pEC50 (one value per entry).

Take a look at these entries with their results.
{"columns": ["compound", "pEC50"],
 "data": [
  ["CC(NC(=O)c1cc2c(cn1)ncn2CCN(C)C)c1cnc(Nc2ccc(C(F)(F)F)cc2)s1 (stereo not shown) [Example 7]", "≥ 7.00"],
  ["CC(NC(=O)c1cc2c(cn1)ncn2C1CCC1)c1cnc(Nc2ccc(Cl)c(C(F)(F)F)c2)cn1 (stereo not shown) [Example 234]", "6.00 to 7.00"],
  ["C[C@@H](NC(=O)c1cc2c(cn1)ncn2C)c1cnc(Nc2cnc(C(C)(C)C)nc2)s1 [Example 241]", "≥ 7.00"]
]}

Field: next compound
Supply reported pEC50 belonging to this compound: CCn1c(C(=O)NC(C)c2ncc(C(=O)Nc3cc(C(F)(F)F)c(Cl)cn3)s2)cnc1C (stereo not shown) [Example 164]
6.00 to 7.00

====

Tested on: phospho-ERK in melanoma derived WM-266-4 cells
Assay: Mechanistic cellular assay for Raf kinase activity (phospho-ERK, Bio-Plex)
Type: cell-based
Details: Homo sapiens, treated 1-2 hr at 37° C., serum free medium, read-out: pERK EC50
reported property: EC50

{"columns": ["compound", "subject of test", "EC50"],
 "data": [
  ["C[C@@H](NC(=O)c1cnc(CN2CCOCC2)n1C)c1ncc(C(=O)Nc2cc(C(F)(F)F)c(Cl)cn2)s1", "phospho-ERK in melanoma derived WM-266-4 cells", "1000 to 10000 nM"]
]}

Please tell me the measured EC50 for CCn1cnc2cnc(C(=O)NC(C)c3cnc(Nc4cnc(C(C)(C)C)nc4)s3)cc21 (stereo not shown) ; system: phospho-ERK in melanoma derived WM-266-4 cells.
≤ 100 nM

Please tell me the measured EC50 for CC(NC(=O)c1ccc2ncn(C)c2c1)c1cnc(Nc2ccc(C(F)(F)F)cc2)s1 (stereo not shown) ; system: phospho-ERK in melanoma derived WM-266-4 cells.
1000 to 10000 nM

Please tell me the measured EC50 for "Cc1nn(C)cc1C(=O)N[C@H](C)c1ncc(C(=O)Nc2cc(C(F)(F)F)c(Cl)cn2)s1" ; system: phospho-ERK in melanoma derived WM-266-4 cells.
1000 to 10000 nM

Please tell me the measured EC50 for "C[C@@H](NC(=O)c1cnc2n1CCC2)c1ncc(C(=O)Nc2cc(C(F)(F)F)c(Cl)cn2)s1" ; system: phospho-ERK in melanoma derived WM-266-4 cells.
≤ 100 nM

Please tell me the measured EC50 for "C[C@@H](NC(=O)c1cnc(N)n1C)c1ncc(C(=O)Nc2cc(C(F)(F)F)c(Cl)cn2)s1" ; system: phospho-ERK in melanoma derived WM-266-4 cells.
≤ 100 nM

Please tell me the measured EC50 for "CCCn1ncc(C(=O)N[C@H](C)c2ncc(C(=O)Nc3cc(C(F)(F)F)c(Cl)cn3)s2)c1C" ; system: phospho-ERK in melanoma derived WM-266-4 cells.
100 to 1000 nM

====

Tested on: phospho-ERK in melanoma derived WM-266-4 cells
Assay: Mechanistic cellular assay for Raf kinase activity (phospho-ERK, Bio-Plex)
Assay type: cell-based
Settings: Homo sapiens, treated 1-2 hr at 37° C., serum free medium, read-out: pERK EC50
Form field: EC50 (one value per entry).

{"columns": ["compound", "EC50"],
 "data": [
  ["CC(NC(=O)c1cccc(N2CCOCC2)n1)c1ncc(C(=O)Nc2cc(C(F)(F)F)c(Cl)cn2)s1 (stereo not drawn)", "0.1 to 1 µM"]
]}

Supply reported EC50 belonging to this compound: CC(NC(=O)c1cnn2cc(Br)ccc12)c1ncc(C(=O)Nc2cc(C(F)(F)F)c(Cl)cn2)s1 (stereo not drawn)
0.1 to 1 µM

Supply reported EC50 belonging to this compound: "Cc1cn(-c2cccc(C(=O)N[C@H](C)c3ncc(C(=O)Nc4cc(C(F)(F)F)c(Cl)cn4)s3)n2)cn1"
1 to 10 µM

Supply reported EC50 belonging to this compound: CCN1CC(n2cnc3cnc(C(=O)NC(C)c4cnc(Nc5cnc(C(C)(C)C)nc5)s4)cc32)C1 (stereo not drawn)
0.1 to 1 µM

Supply reported EC50 belonging to this compound: CC(NC(=O)c1cnn2cc(-c3ccnc(F)c3)ccc12)c1nc(C(=O)Nc2cc(C(F)(F)F)c(Cl)cn2)cs1 (stereo not drawn)
0.1 to 1 µM

Supply reported EC50 belonging to this compound: CC(NC(=O)c1cn2c(Br)cnc2cn1)c1cnc(Nc2ccc(C(F)(F)F)cc2)s1 (stereo not drawn)
≤ 0.1 µM

Supply reported EC50 belonging to this compound: CC(NC(=O)c1cc2c(cn1)ncn2C)c1cnc(Nc2ccc(C(C)(C)C(F)(F)F)cc2)s1 (stereo not drawn)
0.1 to 1 µM

Supply reported EC50 belonging to this compound: CC(NC(=O)c1cn2c(C(F)(F)F)cnc2cn1)c1cnc(Nc2ccc(C(F)(F)F)cc2)s1 (stereo not drawn)
1 to 10 µM

Supply reported EC50 belonging to this compound: "C[C@@H](NC(=O)c1cnc(CN2CCCC2)n1C)c1ncc(C(=O)Nc2cc(C(F)(F)F)c(Cl)cn2)s1"
1 to 10 µM
